# Test system: IGROV1 ovarian
# TEST NAME: NCI tumour cell line growth inhibition, 48 h
In this section we review reported TGI values for a set of compounds.

{"COMPOUND": "COc1ccc(/C(=N/Nc2nc3ccccc3n2Cc2ccccc2)C(=O)O)cc1", "CENSORING OPERATOR": "=", "TGI (µM)": 40.7}
{"COMPOUND": "O=C1CC[C@@H](S(=O)(=O)c2ccccc2)[C@H](/C=C/c2ccccc2)O1", "CENSORING OPERATOR": ">", "TGI (µM)": 100}
{"COMPOUND": "C=CC(=O)C#Cc1cnc(OC)nc1OC", "CENSORING OPERATOR": "=", "TGI (µM)": 53.6}
{"COMPOUND": "Fc1ccc(C2CC(c3cccc(Nc4ccncc4)c3)=NN2c2ccccc2)cc1 (stereo unspecified)", "CENSORING OPERATOR": "=", "TGI (µM)": 3.49}
{"COMPOUND": "CCc1n[nH]c(=O)n1-n1c(C)ccc1C", "CENSORING OPERATOR": ">", "TGI (µM)": 100}
{"COMPOUND": "C/C(=N\\O)C1CC(CC(=O)O)C1(C)C (stereo unspecified)", "CENSORING OPERATOR": ">", "TGI (µM)": 100}

* * *

# Test system: EKVX NSCLC
# TEST NAME: NCI tumour cell line growth inhibition, 48 h
REPORTED METRIC: TGI

{"COMPOUND": "CC(=O)CCC[C@@H](C)[C@@H]1O[C@H]([C@@]2(C)CCC(=O)O2)CC2[C@H]1OC(=O)C21CC1 (stereo not given in full)", "EXPERIMENTAL TARGET": "EKVX NSCLC", "REPORTED METRIC": "TGI", "MEASURED RESULT": "49.5 µM"}
{"COMPOUND": "O=S(=O)(Cc1ccccc1)c1nnc(S(=O)(=O)c2ccc(Cl)cc2)s1", "EXPERIMENTAL TARGET": "EKVX NSCLC", "REPORTED METRIC": "TGI", "MEASURED RESULT": "62 µM"}
{"COMPOUND": "CCN(CC)CCOc1ccc2c(-c3ccccc3)c(-c3ccc(OC)cc3)c(=O)oc2c1", "EXPERIMENTAL TARGET": "EKVX NSCLC", "REPORTED METRIC": "TGI", "MEASURED RESULT": "20.3 µM"}
{"COMPOUND": "CN1CC=C(C#CC(C)(C)O)CC1", "EXPERIMENTAL TARGET": "EKVX NSCLC", "REPORTED METRIC": "TGI", "MEASURED RESULT": "> 37.5 µM"}
{"COMPOUND": "COc1cc(C(=O)/C=C/c2cccnc2Nc2ccc(Cl)cc2)cc(OC)c1OC", "EXPERIMENTAL TARGET": "EKVX NSCLC", "REPORTED METRIC": "TGI", "MEASURED RESULT": "3.16 µM"}

* * *

# Test system: OVCAR-4 ovarian
# TEST NAME: NCI tumour cell line growth inhibition, 48 h
REPORTED METRIC: log10 of TGI (log10 of the value in µM)

{"MOLECULE": "CC(=O)NC(CCc1ccc(Cl)c(Cl)c1)c1cccc(O)c(=O)c1 (stereo unspecified)", "REPORTED METRIC": "log10 of TGI", "MEASURED RESULT": 1.61}
{"MOLECULE": "O=C(CNc1ccc([N+](=O)[O-])cc1)Nn1c(-c2ccccc2)nc2ccccc2c1=O", "REPORTED METRIC": "log10 of TGI", "MEASURED RESULT": 1.01}
{"MOLECULE": "COC(=O)c1cc(C#N)[nH]c1-c1ccc(Br)s1", "REPORTED METRIC": "log10 of TGI", "MEASURED RESULT": 1.56}
{"MOLECULE": "CC1CN1c1c(C(=O)/C=C/c2ccc(F)cc2)c(-c2ccccc2)nn(C)c1=O (stereo unspecified)", "REPORTED METRIC": "log10 of TGI", "MEASURED RESULT": 1.63}
{"MOLECULE": "Cc1ccc(/C=C(/C#N)n2nnc3cccc(F)c32)cc1", "REPORTED METRIC": "log10 of TGI", "MEASURED RESULT": 1.52}
{"MOLECULE": "COc1ccc(C[C@@H]2OC3(C=CC(=O)CC3Sc3ccccc3)O[C@H]2Cc2ccc(OC)cc2)cc1 (stereo partly specified)", "REPORTED METRIC": "log10 of TGI", "MEASURED RESULT": 0.57}
{"MOLECULE": "NN/C(=N\\S(=O)(=O)c1cc(S(=O)(=O)c2ccccc2)cs1)Nc1ccc(Cl)cc1", "REPORTED METRIC": "log10 of TGI", "MEASURED RESULT": 1.82}
{"MOLECULE": "COc1ccc(/C(=N/Nc2nc3ccccc3n2Cc2ccccc2)C(=O)O)cc1", "REPORTED METRIC": "log10 of TGI", "MEASURED RESULT": 1.79}
{"MOLECULE": "COC(=O)C1=C(N)C2=C(N)Oc3ccccc3C2CC1=C(C#N)C#N (stereo unspecified)", "REPORTED METRIC": "log10 of TGI", "MEASURED RESULT": 1.88}

* * *

# System: SK-OV-3 ovarian
# TEST NAME: NCI tumour cell line growth inhibition, 48 h

{"COMPOUND": "Cc1c(Br)c(Br)c2c3c1nc(N1CCNCC1)n3CCC2", "GI50": "3.59 µM"}
{"COMPOUND": "Cc1cc2c(C(C)C)c(O)c(O)c(/C=N/O)c2c(O)c1-c1c(C)cc2c(C(C)C)c(O)c(O)c(/C=N/O)c2c1O", "GI50": "3.6 µM"}
{"COMPOUND": "CC(=O)[CH-]C(=O)c1ccccc1.CC(=O)[CH-]C(=O)c1ccccc1.CC[C@H](CCC(C)[C@H]1CCC2[C@@H]3CC=C4C[C@@H]([O-])CC[C@]4(C)C3CC[C@@]21C)C(C)C.CC[C@H](CCC(C)[C@H]1CCC2[C@@H]3CC=C4C[C@@H]([O-])CC[C@]4(C)C3CC[C@@]21C)C(C)C.Cl.[Ti+4] (some centres undefined)", "GI50": "> 25 µM"}
{"COMPOUND": "O=C(O)C1CC[N-]CC1.O=C(O)C1CC[N-]CC1.[NH2-].[NH2-].[Pt+4]", "GI50": "> 100 µM"}

* * *

# System: CAKI-1 renal
# TEST NAME: NCI tumour cell line growth inhibition, 48 h
*1 amine or outer side, *2 acyl side, *3 side chain or, on linkers, in order; H or OH if unused. Where a SMILES comes first, the peptide text is derived from it. Bridges are numbered along the chain shown (N, C = ends). Roman numbers before positions name the chains, in order. [ ]: non-standard residue; d: D form. Actinocin(1to9) = Cc1c2oc3c(C)ccc(C(=O)[*:2])c3nc-2c(C(=O)[*:1])c(N)c1=O; NMeV = CN[CH](C(=O)O)C(C)C; Sar = CNCC(=O)O
REPORTED METRIC: TGI (µM)

{"COMPOUND": "CC(C)=NC(C(=O)O)C(C)(C)S (stereo unspecified)", "EXPERIMENTAL TARGET": "CAKI-1 renal", "REPORTED METRIC": "TGI", "CENSORING OPERATOR": ">", "MEASURED RESULT": 100}
{"COMPOUND": "O=C(CNc1ccc([N+](=O)[O-])cc1)Nn1c(-c2ccccc2)nc2ccccc2c1=O", "EXPERIMENTAL TARGET": "CAKI-1 renal", "REPORTED METRIC": "TGI", "CENSORING OPERATOR": "=", "MEASURED RESULT": 5.15}
{"COMPOUND": "CC[C@]1(O)CC2CN(CCc3c([nH]c4ccccc34)C(C(=O)OC)(c3cc4c(cc3OC)N(C=O)[C@H]3[C@@](O)(C(=O)OC)[C@H](OC(C)=O)[C@]5(CC)[C@@H]6C[C@@H]6CN6CC[C@]43[C@@H]65)C2)C1 (stereo partly specified)", "EXPERIMENTAL TARGET": "CAKI-1 renal", "REPORTED METRIC": "TGI", "CENSORING OPERATOR": "=", "MEASURED RESULT": 12.2}
{"COMPOUND": "NC(=S)NN=Cc1ccccc1OCc1cccc(COc2ccccc2C=NNC(N)=S)n1", "EXPERIMENTAL TARGET": "CAKI-1 renal", "REPORTED METRIC": "TGI", "CENSORING OPERATOR": ">", "MEASURED RESULT": 100}
{"COMPOUND": "CCN(CC)CCOc1ccc(/C(=C(\\C)Cc2ccc(OC)cc2)c2ccc(O)cc2)cc1", "EXPERIMENTAL TARGET": "CAKI-1 renal", "REPORTED METRIC": "TGI", "CENSORING OPERATOR": "=", "MEASURED RESULT": 3.21}
{"COMPOUND": "COc1ccc(/C=N/NS(=O)(=O)c2ccc(/C=C3\\NC(=O)NC3=O)cc2)cc1", "EXPERIMENTAL TARGET": "CAKI-1 renal", "REPORTED METRIC": "TGI", "CENSORING OPERATOR": ">", "MEASURED RESULT": 100}
{"COMPOUND": "O=C1C=C(Nc2cc(Cl)ccc2Cl)c2ccccc2C1=O", "EXPERIMENTAL TARGET": "CAKI-1 renal", "REPORTED METRIC": "TGI", "CENSORING OPERATOR": "=", "MEASURED RESULT": 75.5}
{"COMPOUND": "c1ccc(CN2C3C4N(Cc5ccccc5)C2C2N(Cc5ccccc5)C(C(N2Cc2ccccc2)N4Cc2ccccc2)N3Cc2ccccc2)cc1", "EXPERIMENTAL TARGET": "CAKI-1 renal", "REPORTED METRIC": "TGI", "CENSORING OPERATOR": ">", "MEASURED RESULT": 100}
{"COMPOUND": "O=S(=O)(Cc1ccccc1)c1nnc(S(=O)(=O)c2ccc(Cl)cc2)s1", "EXPERIMENTAL TARGET": "CAKI-1 renal", "REPORTED METRIC": "TGI", "CENSORING OPERATOR": "=", "MEASURED RESULT": 54}
{"COMPOUND": "C=C(CN(C)C)C(=O)c1ccccc1", "EXPERIMENTAL TARGET": "CAKI-1 renal", "REPORTED METRIC": "TGI", "CENSORING OPERATOR": "=", "MEASURED RESULT": 16.8}
{"COMPOUND": "CCOC(=O)C1(C)C2=CC=C(O2)C(C)(C)C2=CC=C(O2)C(C)(C)C2=CC=C(O2)C(C)(C)C2=CC=C1O2", "EXPERIMENTAL TARGET": "CAKI-1 renal", "REPORTED METRIC": "TGI", "CENSORING OPERATOR": ">", "MEASURED RESULT": 100}
{"COMPOUND": "COc1ccc(CC2NC(=O)C(NC(=O)c3c4nc5c(C(=O)NC6C(=O)NC(Cc7ccc(OC)cc7)C(=O)N7CCCC7C(=O)N(C)CC(=O)N(C)C(C(C)C)C(=O)OC6C)ccc(C)c5oc-4c(C)c(=O)c3N)C(C)OC(=O)C(C(C)C)N(C)C(=O)CN(C)C(=O)C3CCCN3C2=O)cc1 (stereo unspecified) (I: TY(Me)P[Sar][NMeV] / II: TY(Me)P[Sar][NMeV]; ester I:1-I:C, II:1-II:C; linker I:N-II:N via Actinocin(1to9); configuration not given here)", "EXPERIMENTAL TARGET": "CAKI-1 renal", "REPORTED METRIC": "TGI", "CENSORING OPERATOR": "=", "MEASURED RESULT": 0.306}
{"COMPOUND": "O=C(O[C@H](/C=C/c1ccccc1)P1(=O)N(Cc2ccccc2)[C@H]2CCCC[C@@H]2N1Cc1ccccc1)c1ccccc1", "EXPERIMENTAL TARGET": "CAKI-1 renal", "REPORTED METRIC": "TGI", "CENSORING OPERATOR": "=", "MEASURED RESULT": 5.93}
{"COMPOUND": "CC(=O)[CH-]C(=O)c1ccccc1.CC(=O)[CH-]C(=O)c1ccccc1.CC[C@H](CCC(C)[C@H]1CCC2[C@@H]3CC=C4C[C@@H]([O-])CC[C@]4(C)C3CC[C@@]21C)C(C)C.CC[C@H](CCC(C)[C@H]1CCC2[C@@H]3CC=C4C[C@@H]([O-])CC[C@]4(C)C3CC[C@@]21C)C(C)C.Cl.[Ti+4] (stereo partly specified)", "EXPERIMENTAL TARGET": "CAKI-1 renal", "REPORTED METRIC": "TGI", "CENSORING OPERATOR": ">", "MEASURED RESULT": 25}
{"COMPOUND": "C=CCc1cc(O)ccc1O", "EXPERIMENTAL TARGET": "CAKI-1 renal", "REPORTED METRIC": "TGI", "CENSORING OPERATOR": ">", "MEASURED RESULT": 100}
{"COMPOUND": "CCN(CC)CCOc1ccc2c(-c3ccccc3)c(-c3ccc(OC)cc3)c(=O)oc2c1", "EXPERIMENTAL TARGET": "CAKI-1 renal", "REPORTED METRIC": "TGI", "CENSORING OPERATOR": "=", "MEASURED RESULT": 10.3}
